meta.source: patent US20090048164A1

- Assay Target: Bcl-2
- Sequence (chain, as listed by the source): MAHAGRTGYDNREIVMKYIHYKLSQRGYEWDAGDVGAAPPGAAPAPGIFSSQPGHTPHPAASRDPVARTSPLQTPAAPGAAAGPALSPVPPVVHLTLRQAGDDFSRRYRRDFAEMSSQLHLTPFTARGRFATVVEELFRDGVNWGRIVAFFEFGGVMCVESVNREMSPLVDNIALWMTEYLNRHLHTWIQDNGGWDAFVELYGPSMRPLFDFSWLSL
- Experiment Notes: competition phage ELISA
Experimental Readout: IC50 (nM)
# value in nM; strip the unit string

Entry under review: NLWAAQRYGRELARMSDEFVDSFKKG (M13 phage display: FLAG-26mer-GGGT-g3(249-406)) [Bad BH3 R13A, phage-displayed] . Reported IC50?
19

Entry under review: NLWAAQRYGRELRRMSDEFVDSFKKE (M13 phage display: FLAG-26mer-GGGT-g3(249-406)) [Bad BH3 G26E, phage-displayed] . Reported IC50?
15

Entry under review: NLWAAQRYGRELRRMSDEFVASFKKG (M13 phage display: FLAG-26mer-GGGT-g3(249-406)) [Bad BH3 D21A, phage-displayed] . Reported IC50?
17

Entry under review: NLAAAQRYGRELRRMSDEFVDSFKKG (M13 phage display: FLAG-26mer-GGGT-g3(249-406)) [Bad BH3 W3A, phage-displayed] . Reported IC50?
12

Entry under review: NLWAAQAYGRELRRMSDEFVDSFKKG (M13 phage display: FLAG-26mer-GGGT-g3(249-406)) [Bad BH3 R7A, phage-displayed] . Reported IC50?
14
